Every entry's value here was drawn from ChEMBL document CHEMBL1142893.

For each entry below, report its pIC50 value.
molecular target: Human immunodeficiency virus type 1 integrase (Human immunodeficiency virus 1); assay: Inhibition of HIV1 integrase strand transfer activity
Sequence (Q7ZJM1 whole entry): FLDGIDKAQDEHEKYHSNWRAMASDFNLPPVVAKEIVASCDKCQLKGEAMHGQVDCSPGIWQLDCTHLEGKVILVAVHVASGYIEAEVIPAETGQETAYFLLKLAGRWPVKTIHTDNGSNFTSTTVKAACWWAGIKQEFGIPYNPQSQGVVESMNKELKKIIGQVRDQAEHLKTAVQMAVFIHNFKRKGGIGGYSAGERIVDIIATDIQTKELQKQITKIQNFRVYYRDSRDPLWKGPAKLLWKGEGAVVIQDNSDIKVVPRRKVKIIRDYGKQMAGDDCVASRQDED
Please note pIC50 is a logarithmic value: minus log10 of concentration in mol/L. Answer with that number alone.

What value of measured pIC50 is listed for `O=C(O)C(=O)CC(=O)c1ccc2c(c1)[nH]c(=O)c1ccccc12` ?
4.19

Consider the molecule `Cc1cccc2c1[nH]c(=O)c1ccc(C(F)(F)F)cc12` and give its measured pIC50.
3.96

Fill blank: measured pIC50 of the molecule `O=c1[nH]c2ccc(S(=O)(=O)c3ccccc3)cc2c2ccccc12` is ____.
3.38

Reported pIC50 for `COC(=O)c1ccccc1-c1ccc(C(=O)CC(=O)C(=O)O)cc1[N+](=O)[O-]` : what is it?
5.15

Which pIC50 value is on record for `Cc1cc(C)c2[nH]c(=O)c3cc(C#N)ccc3c2c1` ?
3.48

Item `Nc1ccc2[nH]c(=O)c3ccccc3c2c1` has what recorded pIC50?
3.57
